Target Under Test: Cholinesterase (Equus caballus, UniProt P81908)
Sequence (P81908 whole entry): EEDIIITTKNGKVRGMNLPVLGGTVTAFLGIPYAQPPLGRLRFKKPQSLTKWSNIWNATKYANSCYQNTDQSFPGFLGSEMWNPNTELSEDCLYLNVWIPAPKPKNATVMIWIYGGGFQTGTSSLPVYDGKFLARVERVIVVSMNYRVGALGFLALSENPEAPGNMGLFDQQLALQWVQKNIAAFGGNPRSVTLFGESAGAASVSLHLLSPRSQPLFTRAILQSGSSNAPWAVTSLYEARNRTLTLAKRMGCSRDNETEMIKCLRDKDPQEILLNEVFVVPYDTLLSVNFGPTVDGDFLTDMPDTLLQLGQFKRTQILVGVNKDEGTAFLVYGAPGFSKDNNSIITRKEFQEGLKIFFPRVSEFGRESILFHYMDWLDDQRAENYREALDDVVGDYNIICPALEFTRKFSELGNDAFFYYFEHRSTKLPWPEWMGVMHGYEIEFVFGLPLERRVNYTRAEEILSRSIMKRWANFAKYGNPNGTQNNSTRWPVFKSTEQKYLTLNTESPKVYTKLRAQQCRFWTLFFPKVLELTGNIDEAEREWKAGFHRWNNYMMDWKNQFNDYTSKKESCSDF
Documented pIC50 across a set of molecules
Remember, pIC50 is on a log scale: it is -log10 of the molar concentration.

Inquiry: Dear colleague, I am looking for the recorded pIC50 of the following molecule: O=C(NCCCCCCCCCCNc1c2c(nc3cc(Cl)cc(Cl)c13)CCCC2)c1cc(=O)c2cc(O)c(O)cc2o1
Reply text: 7.06

Inquiry: Then this molecule: O=C(NCCCCCCCCCCNc1c2c(nc3cc(Cl)cc(Cl)c13)CCCC2)c1cc(=O)c2cc(O)ccc2o1
Reply text: 7.76

Now, please, on to the next molecule.
Inquiry: Dear colleague, I am looking for the recorded pIC50 of the following molecule: O=C(NCCCCCCCNc1c2c(nc3ccccc13)CCCC2)c1cc(=O)c2ccccc2o1
Reply text: 8.76
